Cited source for all entries: patent US7964624B1

Target: HCV NS3 protease domain (Hepatitis C virus genotype 1b)
Construct: The first 181 amino acids of NS3 (residues 1027-1207 of the viral polyprotein); hexa-histidine (C); made in house; host or cells: E. coli BL21/DE3 pLysS
Assay: biochemical
Conditions: Enzyme Assay 1 (HCV NS3 Protease Domain Peptide Cleavage Assay) activity, apparent Ki class
Property Measured: Ki

1. C=C[C@@H]1C[C@]1(NC(=O)[C@@H]1C[C@]2(CC(c3cccc(Cl)c3)=NO2)CN1C(=O)[C@@H](NC(=O)OC1CCCC1)C(C)(C)C)C(=O)O ... > 500 nM
2. CCC[C@H](NC(=O)[C@@H]1C[C@]2(CC(c3cccc(Cl)c3)=NO2)CN1C(=O)[C@@H](NC(=O)c1c(OC)ccc2ccccc12)C(C)(C)C)C(=O)C(=O)NC1CC1 ... 100 to 500 nM
3. CCC[C@H](NC(=O)[C@@H]1C[C@]2(CC(c3ccccc3)=NO2)CN1C(=O)[C@@H](NC(=O)NCc1ccccc1)C(C)(C)C)C(=O)C(=O)NC1CC1 ... 100 to 500 nM
4. CCC[C@H](NC(=O)[C@@H]1C[C@]2(CC(c3cc(Cl)c(OC)cc3OC)=NO2)CN1C(=O)[C@@H](NC(=O)CC1CCOCC1)C(C)(C)C)C(=O)C(=O)NC1CC1 ... 100 to 500 nM
5. CCC[C@H](NC(=O)[C@@H]1C[C@]2(CC(c3cc(C)c(OC)c(C)c3)=NO2)CN1C(=O)[C@@H](NC(=O)O[C@H]1CCOC1)C(C)(C)C)C(=O)C(=O)NC1CC1 [Compound 191] ... > 500 nM

----------
Entries annotated with measured pKi
Target: HCV NS3 protease domain (Hepatitis C virus genotype 1b)
Construct: The first 181 amino acids of NS3 (residues 1027-1207 of the viral polyprotein); hexa-histidine (C); made in house; host or cells: E. coli BL21/DE3 pLysS
Assay: biochemical
Conditions: Enzyme Assay 1 (HCV NS3 Protease Domain Peptide Cleavage Assay) activity, apparent Ki class
pKi: −log10 of the molar value.
Property Measured: pKi

1. CCC[C@H](NC(=O)[C@@H]1C[C@]2(CC(c3ccco3)=NO2)CN1C(=O)[C@@H](NC(=O)OC1CCOC1)C(C)(C)C)C(=O)C(=O)NC1CC1 (stereo partly shown) [Compound 472] ... < 6.30
2. CCC[C@H](NC(=O)[C@@H]1C[C@]2(CC(c3cccc(Cl)c3)=NO2)CN1C(=O)[C@H](NS(=O)(=O)c1ccc(C)cc1)c1ccccc1)C(=O)C(=O)NC1CC1 [Compound 476] ... 6.30 to 7.00
3. CCC[C@H](NC(=O)[C@@H]1C[C@]2(CC(c3ccc4c(c3)OCCO4)=NO2)CN1C(=O)[C@@H](NC(=O)O[C@H]1CCOC1)C(C)(C)C)C(=O)C(=O)NC1CC1 [Compound 456] ... 6.30 to 7.00
4. CCC[C@H](NC(=O)[C@@H]1C[C@]2(CC(c3cccc(Cl)c3)=NO2)CN1C(=O)[C@@H](NC(=O)CC1CCC(C)CC1)C(C)(C)C)C(=O)C(=O)NC1CC1 (stereo partly shown) [Compound 361] ... 6.30 to 7.00
5. CCC[C@H](NC(=O)[C@@H]1C[C@]2(CC(c3ccc(CC)o3)=NO2)CN1C(=O)[C@@H](NC(=O)CC1CCOCC1)C(C)(C)C)C(=O)C(=O)NC1CC1 [Compound 554] ... < 6.30
6. CCC[C@H](NC(=O)[C@@H]1C[C@]2(CC(c3cccc(Cl)c3)=NO2)CN1C(=O)[C@@H](NC(=O)CC1CCCCC1)C(C)(C)C)C(=O)C(=O)N[C@@H](C)c1ccccc1 [Compound 546] ... 6.30 to 7.00
7. CCC[C@H](NC(=O)[C@@H]1C[C@]2(CC(c3cccc(Cl)c3)=NO2)CN1C(=O)[C@@H](NC(=O)C(F)c1ccccc1)C(C)(C)C)C(=O)C(=O)NC1CC1 (stereo partly shown) [Compound 393] ... 6.30 to 7.00
8. CCC[C@H](NC(=O)[C@@H]1C[C@]2(CC(c3cccc(Cl)c3)=NO2)CN1C(=O)[C@@H](NC(=O)CC1CCCCC1)C(C)(C)C)C(=O)C(=O)N1CCCCC1 [Compound 568] ... < 6.30
9. CCC[C@H](NC(=O)[C@@H]1C[C@]2(CC(c3ccc4noc(-c5ccc(Cl)cc5)c4c3)=NO2)CN1C(=O)[C@@H](NC(=O)O[C@H]1CCOC1)C(C)(C)C)C(=O)C(=O)NC1CC1 [Compound 448] ... 6.30 to 7.00
10. CCC[C@H](NC(=O)[C@@H]1C[C@]2(CC(c3cccc(Cl)c3)=NO2)CN1C(=O)[C@@H](NC(=O)OCc1ccncc1)C(C)(C)C)C(=O)C(=O)NC1CC1 [Compound 357] ... 6.30 to 7.00

----------
Target: full-length hepatitis C viral protein NS3•4A (Hepatitis C virus genotype 1a, UniProt P27958)
Construct: hexa-histidine (N); made in house; host or cells: Sf9 insect cells (baculovirus, pVL1392)
Experiment: biochemical
Parameters: species or system HCV sub-type strain 1a
Settings: Enzyme Assay 2 (HCV NS3 Peptide Cleavage Assay) activity, apparent Ki class
Property Measured: Ki

1) COc1c(C)cc(C2=NO[C@]3(C2)C[C@@H](C(=O)N[C@@H](CC2CC2)C(=O)C(N)=O)N(C(=O)[C@@H](NC(=O)CC2CCCCCC2)C(C)(C)C)C3)cc1C ... < 100 nM
2) CCC[C@H](NC(=O)[C@@H]1C[C@]2(CC(c3cccc(Cl)c3)=NO2)CN1C(=O)[C@@H](NC(=O)CC1CCCCC1)C(C)(C)C)C(=O)C(=O)NC1CCCC1 ... 100 to 500 nM
3) CCC[C@H](NC(=O)[C@@H]1C[C@]2(CC(c3cccc(Cl)c3)=NO2)CN1C(=O)C(NC(=O)CC1C[C@@H](C)O[C@H](C)C1)C(C)(C)C)C(=O)C(=O)NC1CC1 (some centres unmarked) ... 100 to 500 nM
4) CCC[C@H](NC(=O)[C@@H]1C[C@]2(CC(c3cnc(OC)nc3OC)=NO2)CN1C(=O)[C@@H](NC(=O)OC1CCCC1)C(C)(C)C)C(=O)C(=O)NC1CC1 ... 100 to 500 nM
5) CCC[C@H](NC(=O)[C@@H]1C[C@]2(CC(c3cccc(Cl)c3)=NO2)CN1C(=O)C1(C(N)=O)CC1)C(=O)C(=O)NC1CC1 ... > 500 nM

----------
Target: HCV NS3 protease domain (Hepatitis C virus genotype 1b, UniProt Q9WMX2)
Construct: The first 181 amino acids of NS3 (residues 1027-1207 of the viral polyprotein); hexa-histidine (C); made in house; host or cells: E. coli BL21/DE3 pLysS
Assay: biochemical
Details: Enzyme Assay 1 (HCV NS3 Protease Domain Peptide Cleavage Assay) activity, apparent Ki class
pKi: −log10 of the molar value.
In this section we review reported pKi values for a set of molecules.
Property Measured: pKi

1. CCC[C@H](NC(=O)[C@@H]1C[C@]2(CC(c3cccc(Cl)c3)=NO2)CN1C(=O)[C@@H](NC(=O)CC1CCCCC1)C(C)(C)C)C(=O)C(=O)Nc1cccc(C(C)=O)c1 ... < 6.30
2. CCC[C@H](NC(=O)[C@@H]1C[C@]2(CC(c3cccc(Cl)c3)=NO2)CN1C(=O)[C@@H](NC(=O)CC1CCCCC1)C(C)(C)C)C(=O)C(=O)Nc1cc(OC)ccc1OC ... < 6.30
3. CCC[C@H](NC(=O)[C@@H]1C[C@]2(CC(c3cccc(Cl)c3)=NO2)CN1C(=O)[C@@H](NC(=O)[C@@H]1CCC(=O)N1Cc1cccs1)C(C)(C)C)C(=O)C(=O)NC1CC1 ... 6.30 to 7.00
4. CCC[C@H](NC(=O)[C@@H]1C[C@]2(CC(c3cccc(Cl)c3)=NO2)CN1C(=O)[C@@H](NC(=O)[C@@H](C)C1CCCCC1)C(C)(C)C)C(=O)C(=O)NC1CC1 ... 6.30 to 7.00
5. CCC[C@H](NC(=O)[C@@H]1C[C@]2(CC(c3ccc(OC)c(Cl)c3)=NO2)CN1C(=O)[C@@H](NC(=O)CC1CCOCC1)C(C)(C)C)C(=O)C(=O)NC1CC1 ... 6.30 to 7.00
6. CCC[C@H](NC(=O)[C@@H]1C[C@]2(CC(c3cccc(Cl)c3)=NO2)CN1C(=O)[C@@H](NC(=O)CC1CCCCC1)C(C)(C)C)C(=O)C(=O)Nc1cccc(NS(C)(=O)=O)c1 ... < 6.30
7. CCC[C@H](NC(=O)[C@@H]1C[C@]2(CC(c3cc(F)c(OCC)c(Cl)c3)=NO2)CN1C(=O)[C@@H](NC(=O)CC1CCOCC1)C(C)(C)C)C(=O)C(=O)NC1CC1 ... 6.30 to 7.00
8. CCC[C@H](NC(=O)[C@@H]1C[C@]2(CC(c3cccc(Cl)c3)=NO2)CN1C(=O)[C@H](Cc1ccccc1C(F)(F)F)NC(=O)CC1CCCCC1)C(=O)C(=O)NC1CC1 ... < 6.30
9. CCC[C@H](NC(=O)[C@@H]1C[C@]2(CC(c3cccc(Cl)c3)=NO2)CN1C(=O)[C@H](CC(C)C)NS(=O)(=O)c1ccc(OC)cc1)C(=O)C(=O)NC1CC1 ... < 6.30
10. CCC[C@H](NC(=O)[C@@H]1C[C@]2(CC(c3cccc(Cl)c3)=NO2)CN1C(=O)[C@@H](NC(=O)NC(C)C)C(C)(C)C)C(=O)C(=O)NC1CC1 ... > 7.00
